Quick list: viability, T/C per entry.
System: 521955-158-R2-J5-PDC complex spheroid viability;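 also: spheroids exposed to agents for one week before reading; 100% = DMSO vehicle control viability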
test protocol: Anticancer human tumor 521955-158-R2-J5-PDC patient-derived pancreatic carcinoma cell line growth inhibition [GQUAD]
measurement context: second compound 1 µM; first compound 0.1 µM; stronger effect = lower value
measurement kind: viability, T/C (%)

compound	readout number
O=C(c1cc(Cc2n[nH]c(=O)c3ccccc23)ccc1F)N1CCN(C(=O)C2CC2)CC1 + Cc1[nH]c2ccc(F)cc2c1-c1nc2c3cccnc3c3ncccc3c2[nH]1	93
COc1ncnc(C2CC2)c1-c1ncc2cnn(Cc3ccc(-c4nc(C(F)(F)F)cn4C(C)C)cc3)c2n1 + CN(C)c1ccc(Nc2c3ccc(NC(=O)CCN4CCCC4)cc3nc3cc(NC(=O)CCN4CCCC4)ccc23)cc1	109
C=CCn1c(=O)c2cnc(Nc3ccc(N4CCN(C)CC4)cc3)nc2n1-c1cccc(C(C)(C)O)n1 + CN(C)c1ccc(Nc2c3ccc(NC(=O)CCN4CCCC4)cc3nc3cc(NC(=O)CCN4CCCC4)ccc23)cc1	85.2
C=CC(=O)N1CCN(c2nc(=O)n(-c3c(C)ccnc3C(C)C)c3nc(-c4c(O)cccc4F)c(F)cc23)C(C)C1 (stereo not given) + Cc1[nH]c2ccc(F)cc2c1-c1nc2c3cccnc3c3ncccc3c2[nH]1	102
C#Cc1c(F)ccc2cc(O)cc(-c3ncc4c(N5CC6CCC(C5)N6)nc(OCC56CCCN5CC(F)C6)nc4c3F)c12 (stereo not given) + Cc1cnc(CNC(=O)c2c(=O)c3ccc(N4CCCN(C)CC4)nc3n3c2sc2ccccc23)cn1	12.6
